System: PPARg:RXRa (NR concentration 180 nM, RXRa partner concentration 90 nM)
test-method-notes: PBM binding z-score (relative to random genomic background probes); higher = stronger binding; sequences stand for … in GC…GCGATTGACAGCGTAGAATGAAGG

- sequence-text: "CTCGGAAGGTCGGTTGAGGTGAGTATACGGATAA"
  PBM binding z-score: -0.0465
- sequence-text: "CTCGAAAGGTCGGTTGAGGGGAGTATACGGATAA"
  PBM binding z-score: 0.359
- sequence-text: "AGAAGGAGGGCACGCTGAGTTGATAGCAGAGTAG"
  PBM binding z-score: 1.89
- sequence-text: "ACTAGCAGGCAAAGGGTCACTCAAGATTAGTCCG"
  PBM binding z-score: 5.28
- sequence-text: "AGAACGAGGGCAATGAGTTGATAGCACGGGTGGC"
  PBM binding z-score: 1.4
- sequence-text: "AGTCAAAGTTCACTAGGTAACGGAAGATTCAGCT"
  PBM binding z-score: 6.78
- sequence-text: "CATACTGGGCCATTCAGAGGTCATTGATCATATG"
  PBM binding z-score: 2.37
- sequence-text: "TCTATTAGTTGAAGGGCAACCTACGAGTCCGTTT"
  PBM binding z-score: 0.121
- sequence-text: "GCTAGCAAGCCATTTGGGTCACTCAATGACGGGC"
  PBM binding z-score: 0.614
- sequence-text: "ATACCAAGGTGATCGTGAGGTCGATGATACTAAC"
  PBM binding z-score: 0.934
- sequence-text: "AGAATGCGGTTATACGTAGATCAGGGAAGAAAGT"
  PBM binding z-score: 0.152
- sequence-text: "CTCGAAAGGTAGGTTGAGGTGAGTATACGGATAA"
  PBM binding z-score: 0.0538

---

System: RARg:RXRa (NR concentration 270 nM, RXRa partner concentration 90 nM)
test-method-notes: PBM binding z-score (relative to random genomic background probes); higher = stronger binding; sequences stand for … in GC…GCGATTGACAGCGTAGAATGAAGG

- sequence-text: "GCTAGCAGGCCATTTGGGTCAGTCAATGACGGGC"
  PBM binding z-score: 0.49
- sequence-text: "TTTATTAGTTGAAGGGCAACCGACGAGTCCGTTT"
  PBM binding z-score: 0.781
- sequence-text: "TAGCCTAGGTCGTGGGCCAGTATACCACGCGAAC"
  PBM binding z-score: 0.842
- sequence-text: "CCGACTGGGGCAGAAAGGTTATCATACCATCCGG"
  PBM binding z-score: 1.48
- sequence-text: "ACTCGTTGGTCAGCTGAGGTCACACACAATTCGG"
  PBM binding z-score: 4.16
- sequence-text: "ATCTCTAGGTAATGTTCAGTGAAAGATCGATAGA"
  PBM binding z-score: 0.262
- sequence-text: "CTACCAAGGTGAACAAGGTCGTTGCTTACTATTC"
  PBM binding z-score: 1.83
- sequence-text: "CTACCAAGGTGAACAAGGTCGTTGACTACTATTC"
  PBM binding z-score: 2.17
- sequence-text: "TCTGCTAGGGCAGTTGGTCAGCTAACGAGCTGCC"
  PBM binding z-score: -0.0411
- sequence-text: "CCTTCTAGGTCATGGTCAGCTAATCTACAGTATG"
  PBM binding z-score: 4.02
- sequence-text: "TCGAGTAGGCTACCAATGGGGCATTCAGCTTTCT"
  PBM binding z-score: -0.505
- sequence-text: "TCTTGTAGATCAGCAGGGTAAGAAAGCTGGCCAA"
  PBM binding z-score: -0.327
- sequence-text: "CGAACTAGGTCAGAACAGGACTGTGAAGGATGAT"
  PBM binding z-score: 2.33
- sequence-text: "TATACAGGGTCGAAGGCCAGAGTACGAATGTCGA"
  PBM binding z-score: 1.87
- sequence-text: "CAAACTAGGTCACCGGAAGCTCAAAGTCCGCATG"
  PBM binding z-score: 4.84
- sequence-text: "CCTGCTCGGTCATGGTCAGCTAATCTACAGTATG"
  PBM binding z-score: 1.91
- sequence-text: "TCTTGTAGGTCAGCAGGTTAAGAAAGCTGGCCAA"
  PBM binding z-score: 4.48
- sequence-text: "TCATGTAGATCAATAGAGGTTAAGAAAGTGCGCT"
  PBM binding z-score: 0.871
- sequence-text: "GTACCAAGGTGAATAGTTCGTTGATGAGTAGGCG"
  PBM binding z-score: 1.94
- sequence-text: "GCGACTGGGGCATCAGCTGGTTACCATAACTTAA"
  PBM binding z-score: 0.0774
- sequence-text: "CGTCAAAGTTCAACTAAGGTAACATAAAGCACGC"
  PBM binding z-score: 5.98
- sequence-text: "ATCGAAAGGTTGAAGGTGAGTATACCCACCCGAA"
  PBM binding z-score: 1.45
- sequence-text: "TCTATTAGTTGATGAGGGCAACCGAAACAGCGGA"
  PBM binding z-score: 0.771
- sequence-text: "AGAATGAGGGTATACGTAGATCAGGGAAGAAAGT"
  PBM binding z-score: 0.26
- sequence-text: "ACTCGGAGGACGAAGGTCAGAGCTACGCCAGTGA"
  PBM binding z-score: 2.9
- sequence-text: "CCTACTGGGCCTAGGTCATTGATCAGTCAAAGCA"
  PBM binding z-score: 2.02

Values from the supplement of paper PMC6555819
